# Tested on: methicillin-resistant Staphylococcus aureus (ATCC 43300)
# Assay protocol: Antimicrobial screening (CO-ADD), growth inhibition at single concentration
# Type: cell-based
# Reported conditions: ATCC 43300 / MRSA, at 32 µg/mL concentration, read-out: growth inhibition % Sa (MRSA)

Given smiles	inhibition at 32 µg/mL [%]
Cc1ccc2[nH]c(-c3ccc(S(C)(=O)=O)cc3)c(/C=N/Nc3ccc(S(N)(=O)=O)cc3)c2c1	7.58
CS(=O)(=O)c1ccc(-c2[nH]c3ccccc3c2C=NNc2ccc(S(N)(=O)=O)cc2)cc1	21.9
CS(=O)(=O)c1ccc(-c2[nH]c3ccccc3c2C=NNc2ccc(F)cc2)cc1	95.8
Cc1ccc(NN=Cc2c(-c3ccc(S(C)(=O)=O)cc3)[nH]c3ccc(C)cc23)cc1	96.2
Cc1ccc(NN=Cc2c(-c3ccc(S(C)(=O)=O)cc3)[nH]c3ccc(F)cc23)cc1	28.2
CS(=O)(=O)c1ccc(-c2[nH]c3ccccc3c2-c2nc3cc(Cl)ccc3[nH]2)cc1	13.6
Cc1ccc2[nH]c(-c3ccc(S(C)(=O)=O)cc3)c(-c3nc4cc(Cl)ccc4[nH]3)c2c1	4.62
CS(=O)(=O)c1ccc(-c2[nH]c3ccc(F)cc3c2C=NO)cc1	10.3
CS(=O)(=O)c1ccc(-c2[nH]c3ccc(F)cc3c2/C=N/Nc2ccc(S(N)(=O)=O)cc2)cc1	95.2
CS(=O)(=O)c1ccc(N/N=C/c2c(-c3ccc(S(C)(=O)=O)cc3)[nH]c3ccc(F)cc23)cc1	30.3
CS(=O)(=O)c1ccc(NN=Cc2c(-c3ccc(S(C)(=O)=O)cc3)[nH]c3ccccc23)cc1	25.6
Cc1ccc2[nH]c(-c3ccc(S(C)(=O)=O)cc3)c(C=NNc3ccc(F)cc3)c2c1	8.33
CS(=O)(=O)c1ccc(-c2[nH]c3ccc(F)cc3c2-c2nc3cc(Cl)ccc3[nH]2)cc1	11.3
Cc1ccc2[nH]c(-c3ccc(S(C)(=O)=O)cc3)c(/C=N/Nc3ccc(S(C)(=O)=O)cc3)c2c1	15.6
CS(=O)(=O)c1ccc(-c2[nH]c3ccc(F)cc3c2C=NNc2ccc(F)cc2)cc1	30.6

###

Below are compounds with their MIC as measured on C. neoformans var. grubii.
Measure name: MIC

Compound	Val
CS(=O)(=O)c1ccc(-c2[nH]c3ccc(F)cc3c2/C=N/Nc2ccc(S(N)(=O)=O)cc2)cc1	> 32 µg/mL
Cc1ccc(NN=Cc2c(-c3ccc(S(C)(=O)=O)cc3)[nH]c3ccc(C)cc23)cc1	> 32 µg/mL
C[C@@H]1[C@H](O)[C@@H](C)/C=C/C=C/C=C/C=C/C=C/C=C/C=C/[C@H](O[C@@H]2O[C@H](C)[C@@H](O)[C@H](N)[C@@H]2O)C[C@@H]2O[C@](O)(C[C@@H](O)C[C@@H](O)[C@H](O)CC[C@@H](O)C[C@@H](O)CC(=O)O[C@H]1C)C[C@H](O)[C@H]2C(=O)O [Amphotericin B, amphotericin B, reference compound]	1.56 µg/mL
CS(=O)(=O)c1ccc(-c2[nH]c3ccccc3c2C=NNc2ccc(F)cc2)cc1	> 32 µg/mL

Just for reference, paper PMC7106896 is where these values come from.
